Target: recombinant human PFKM (Homo sapiens)
Sequence (P08237 2-780): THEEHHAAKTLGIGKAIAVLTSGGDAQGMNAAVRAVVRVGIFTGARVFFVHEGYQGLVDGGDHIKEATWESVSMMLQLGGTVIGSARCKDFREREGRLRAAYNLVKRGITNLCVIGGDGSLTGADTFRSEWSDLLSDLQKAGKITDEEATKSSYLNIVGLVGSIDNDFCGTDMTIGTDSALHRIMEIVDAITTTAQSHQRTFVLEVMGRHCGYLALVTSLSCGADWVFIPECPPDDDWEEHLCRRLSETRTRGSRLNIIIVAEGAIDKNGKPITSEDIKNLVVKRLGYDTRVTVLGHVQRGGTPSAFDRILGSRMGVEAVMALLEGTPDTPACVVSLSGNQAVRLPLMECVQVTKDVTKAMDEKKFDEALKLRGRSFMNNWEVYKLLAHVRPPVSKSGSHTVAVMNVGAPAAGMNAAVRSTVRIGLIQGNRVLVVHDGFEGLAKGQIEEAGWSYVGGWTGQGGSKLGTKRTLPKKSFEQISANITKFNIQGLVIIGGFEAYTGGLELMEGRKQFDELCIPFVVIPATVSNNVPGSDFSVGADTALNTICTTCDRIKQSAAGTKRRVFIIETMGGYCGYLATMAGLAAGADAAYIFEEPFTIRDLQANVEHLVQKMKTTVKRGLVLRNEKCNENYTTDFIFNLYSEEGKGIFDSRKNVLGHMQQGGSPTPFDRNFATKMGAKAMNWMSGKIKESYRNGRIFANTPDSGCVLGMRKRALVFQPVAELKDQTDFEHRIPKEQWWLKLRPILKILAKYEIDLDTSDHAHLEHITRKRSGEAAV
Test: PFKM enzymatic activity inhibition
Listing of recorded IC50 by entry.
Your answer is read as nM, so omit the unit and give the number.

Query string: Item `CC1=C(O)C(=O)C=C2C1=CC=C1[C@@]2(C)CC[C@@]2(C)[C@@H]3C[C@](C)(C(=O)O)CC[C@]3(C)CC[C@]12C` has what recorded IC50?
Result string: 349

Query string: Item `O=C(c1cccs1)c1no[n+]([O-])c1C(=O)c1cccs1` has what recorded IC50?
Result string: 292

Query string: Item `C#CCNC(=O)[C@]1(C)CC[C@]2(C)CC[C@]3(C)C4=CC=C5C(=CC(=O)C(O)=C5C)[C@]4(C)CC[C@@]3(C)[C@@H]2C1` has what recorded IC50?
Result string: 507

###

Target: recombinant PFKL (Homo sapiens, UniProt P17858)
Sequence (P17858 2-780): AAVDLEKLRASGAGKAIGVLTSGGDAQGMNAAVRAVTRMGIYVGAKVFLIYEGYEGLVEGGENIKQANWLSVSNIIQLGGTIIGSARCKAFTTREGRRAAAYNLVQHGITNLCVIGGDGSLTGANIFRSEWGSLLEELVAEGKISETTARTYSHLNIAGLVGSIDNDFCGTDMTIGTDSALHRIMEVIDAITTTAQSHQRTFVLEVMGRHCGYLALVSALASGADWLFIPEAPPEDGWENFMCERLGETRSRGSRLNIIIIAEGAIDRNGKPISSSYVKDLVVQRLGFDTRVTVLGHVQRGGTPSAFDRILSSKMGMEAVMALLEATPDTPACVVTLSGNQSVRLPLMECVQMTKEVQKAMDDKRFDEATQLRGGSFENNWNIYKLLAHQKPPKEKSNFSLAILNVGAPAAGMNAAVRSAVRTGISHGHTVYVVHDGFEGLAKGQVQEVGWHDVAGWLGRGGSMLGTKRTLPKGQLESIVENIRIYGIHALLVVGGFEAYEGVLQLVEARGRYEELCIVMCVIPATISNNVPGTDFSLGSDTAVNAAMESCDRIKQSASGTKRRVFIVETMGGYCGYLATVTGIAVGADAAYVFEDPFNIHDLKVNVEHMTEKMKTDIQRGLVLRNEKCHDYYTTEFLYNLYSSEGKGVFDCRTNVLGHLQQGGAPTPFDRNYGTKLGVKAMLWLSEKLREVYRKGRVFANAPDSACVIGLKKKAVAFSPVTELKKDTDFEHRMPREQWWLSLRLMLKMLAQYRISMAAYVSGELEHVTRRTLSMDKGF
Assay: PFKL enzymatic activity inhibition
quantity: IC50 (nM)
Your answer is read as nM, so omit the unit and give the number.

Query string: Test system recombinant PFKL (Homo sapiens, UniProt P17858); read-out IC50; what value for `CC1=C(O)C(=O)C=C2C1=CC=C1[C@@]2(C)CC[C@@]2(C)[C@@H]3C[C@](C)(C(=O)O)CC[C@]3(C)CC[C@]12C` ?
Result string: 916
